Where do these numbers come from? They come from ChEMBL document CHEMBL6127028.

procedure-details: Aqueous solubility of the compound in water by UV/Vis spectrophotometry
Format: physicochemical
readout-name: solubility (µM)
Your answer is read as µM, so omit the unit and give the number.

Retrieve solubility measured for `CC[C@@]1(O)C(=O)OCc2c1cc1n(c2=O)Cc2cc3ccccc3nc2-1` and print it.
3.6

---

procedure-details: Cytostatic activity against mouse L929 cells assessed as reduction in cell viability incubated for 72 hrs by MTT assay
Assay type: toxicity, cell-based
readout-name: IC50 at 72 h (µM)
Your answer is read as µM, so omit the unit and give the number.

Retrieve IC50 at 72 h measured for CC[C@@]1(O)C(=O)OCc2c1cc1n(c2=O)Cc2cc3ccccc3nc2-1 [CAMPTOTHECIN] and print it.
15.7

---

procedure-details: Cytostatic activity against HEK293T cells assessed as reduction in cell viability incubated for 72 hrs by MTT assay
Format: toxicity, cell-based, HEK-293T
condition-summary: human
Where a SMILES comes first, the peptide text is derived from it. [ ]: non-standard residue; d: D form. Nle = CCCC[C@H](N)C(=O)O
Form field: IC50 at 72 h (one value per entry).

{"compound": "CCCC[C@H](NC(=O)[C@H](CC(N)=O)NC(=O)[C@H](CCCNC(=N)N)NC(=O)[C@@H](NC(=O)CNC(=O)[C@H](C)NC(=O)[C@H](CCCCN)NC(=O)[C@H](C)NC(=O)[C@H](CCCNC(=N)N)NC(=O)[C@@H](NC(=O)CNC(C)=O)C(C)C)C(C)C)C(=O)N[C@@H](Cc1ccccc1)C(=O)N[C@@H](CCCCN)C(=O)N[C@@H](CO)C(=O)N[C@@H](CCC(=O)O)C(=O)N[C@@H](CO)C(=O)N[C@@H](Cc1ccc(O)cc1)C(N)=O (Ac-GVRAKAGVRN[Nle]FKSESY-NH2)", "IC50 at 72 h": "> 100 µM"}

Retrieve IC50 at 72 h measured for CC[C@@]1(O)C(=O)OCc2c1cc1n(c2=O)Cc2cc3ccccc3nc2-1 [CAMPTOTHECIN] and print it.
< 0.01 µM

---

Tested on: 4T1
procedure-details: Cytostatic activity against mouse 4T1 cells expressing low SORT1 assessed as reduction in cell viability incubated for 72 hrs in presence of TH19P01 by MTT assay
Type: functional, cell-based
condition-summary: 4T1, 72 h
readout-name: IC50

Retrieve IC50 measured for CC[C@@]1(O)C(=O)OCc2c1cc1n(c2=O)Cc2cc3ccccc3nc2-1 [CAMPTOTHECIN] and print it.
< 32 nM
